Target: JAK3 (Homo sapiens (Human))
Sequence (P52333 whole entry): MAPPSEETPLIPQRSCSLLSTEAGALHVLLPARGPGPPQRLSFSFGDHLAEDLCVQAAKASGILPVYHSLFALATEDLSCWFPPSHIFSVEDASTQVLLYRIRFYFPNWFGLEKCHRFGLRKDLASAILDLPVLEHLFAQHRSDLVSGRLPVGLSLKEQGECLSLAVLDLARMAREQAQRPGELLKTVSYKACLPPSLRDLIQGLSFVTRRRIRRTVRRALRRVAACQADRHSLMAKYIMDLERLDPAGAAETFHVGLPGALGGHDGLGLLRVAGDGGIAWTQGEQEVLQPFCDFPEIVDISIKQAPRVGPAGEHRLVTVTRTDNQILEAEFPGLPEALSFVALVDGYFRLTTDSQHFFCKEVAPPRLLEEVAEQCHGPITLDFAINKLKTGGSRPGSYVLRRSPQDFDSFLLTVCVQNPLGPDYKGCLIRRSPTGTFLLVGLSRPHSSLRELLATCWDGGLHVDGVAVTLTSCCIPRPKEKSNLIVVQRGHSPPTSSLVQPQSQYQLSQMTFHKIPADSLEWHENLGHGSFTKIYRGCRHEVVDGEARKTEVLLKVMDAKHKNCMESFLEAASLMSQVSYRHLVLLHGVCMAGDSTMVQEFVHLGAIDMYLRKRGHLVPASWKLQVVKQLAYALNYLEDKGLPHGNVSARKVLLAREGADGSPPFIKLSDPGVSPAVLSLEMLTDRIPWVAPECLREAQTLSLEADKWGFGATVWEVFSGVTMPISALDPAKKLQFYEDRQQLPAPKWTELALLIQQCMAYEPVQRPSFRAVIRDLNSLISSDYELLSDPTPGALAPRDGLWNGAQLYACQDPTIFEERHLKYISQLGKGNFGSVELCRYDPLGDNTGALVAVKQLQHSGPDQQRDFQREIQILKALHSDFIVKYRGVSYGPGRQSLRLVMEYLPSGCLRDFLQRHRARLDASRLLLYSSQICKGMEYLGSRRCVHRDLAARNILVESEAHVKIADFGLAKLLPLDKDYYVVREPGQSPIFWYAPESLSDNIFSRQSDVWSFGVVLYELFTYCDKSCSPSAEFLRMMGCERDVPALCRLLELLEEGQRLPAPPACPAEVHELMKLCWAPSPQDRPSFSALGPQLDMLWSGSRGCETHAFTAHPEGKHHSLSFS
Test: INVITROGEN Select Screening in vitro kinase activity assay
Type: biochemical
Details: enzymatic
value type: IC50 (nM)

C=CC(=O)Nc1cccc(CNc2nc(Nc3ccc(N4CCN(CCCCNC(=O)CC5[C@H]6C[C@@H]7C[C@@H](C[C@H]5C7)C6)CC4)cc3)ncc2Cl)c1 (stereo partly drawn) :: 7.95

I. C=CC(=O)Nc1cccc(CNc2nc(Nc3ccc(N4CCN(CCCNC(=O)CC5[C@H]6C[C@@H]7C[C@@H](C[C@H]5C7)C6)CC4)cc3)ncc2Cl)c1 (stereo partly drawn)
II. C=CC(=O)Nc1cccc(CNc2nc(Nc3cnn(C4CCN(CCNC(=O)CC5[C@H]6C[C@@H]7C[C@@H](C[C@H]5C7)C6)CC4)c3)ncc2Cl)c1 (stereo partly drawn)
III. C=CC(=O)Nc1cccc(CNc2nc(Nc3ccc(N4CCN(CCCNC(=O)CC5[C@H]6C[C@@H]7C[C@@H](C[C@H]5C7)C6)CC4)cc3OC)ncc2Cl)c1 (stereo partly drawn)
Order these by IC50, descending, and give the full ranking. # format: label list in the order the request specifies
III, I, II
(III: 45 nM, I: 12.8 nM, II: 6.8 nM)
